Source of measurements: paper PMC4769027

Target: FcγRIIa H131 variant ectodomain (human) (UniProt P12318)
Assay: SPR
RECORDED METRIC: Kd (nM)
Note: unit nM is implicit; provide only the numeric part.

SDALIE Fc (S239D/A330L/I332E IgG1 Fc) (domain or fragment): 1490

// switching to the query substance
Specify reported Kd for the substance shown: GASDALIE Fc (G236A/S239D/A330L/I332E IgG1 Fc), expressed as an Fc fragment (domain or fragment)
1580

###

Molecular target: FcγRIIIa F158 variant ectodomain (as used in SPR) (human) (UniProt P08637)
Sequence (P08637 17-218, change not shown): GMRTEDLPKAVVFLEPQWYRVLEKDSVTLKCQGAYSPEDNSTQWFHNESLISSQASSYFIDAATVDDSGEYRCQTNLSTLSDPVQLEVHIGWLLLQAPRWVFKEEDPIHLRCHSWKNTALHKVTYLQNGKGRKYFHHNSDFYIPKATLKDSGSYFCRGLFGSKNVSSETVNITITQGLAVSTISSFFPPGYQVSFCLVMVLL
Experiment: SPR
RECORDED METRIC: Kd (nM)
# output: bare number, implied unit nM

SDALIE Fc (S239D/A330L/I332E IgG1 Fc) (domain or fragment): 201

Now for a further substance.
Complete the entry with Kd for GASDALIE Fc (G236A/S239D/A330L/I332E IgG1 Fc), expressed as an Fc fragment (domain or fragment)
213
